Some binders, each annotated with its measured Kd.
TARGET: Biotinylated SARS-CoV-2 S1 protein (ACRO, S1N-C82E8) (UniProt P0DTC2 16-685)
PROCEDURE_DETAILS: BLI
# output: bare number, implied unit nM

BINDER	UOM	REPORTED_RESULT
Ab 19 scFv-Fc (scFv, V domains shown) VH: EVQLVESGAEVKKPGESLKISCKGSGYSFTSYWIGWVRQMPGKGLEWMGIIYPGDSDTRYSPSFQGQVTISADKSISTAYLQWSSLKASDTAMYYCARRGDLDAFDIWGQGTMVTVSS VL: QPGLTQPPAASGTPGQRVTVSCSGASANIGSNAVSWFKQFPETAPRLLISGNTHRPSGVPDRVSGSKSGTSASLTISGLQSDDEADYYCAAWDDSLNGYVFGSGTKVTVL	nM	0.13

Task: Entry Ab 30 scFv-Fc (RBD-R3-E1-A5) (scFv, V domains shown) VH: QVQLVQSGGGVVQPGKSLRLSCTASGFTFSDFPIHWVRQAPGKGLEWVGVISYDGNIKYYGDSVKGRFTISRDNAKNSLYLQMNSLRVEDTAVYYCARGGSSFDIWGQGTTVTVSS VL: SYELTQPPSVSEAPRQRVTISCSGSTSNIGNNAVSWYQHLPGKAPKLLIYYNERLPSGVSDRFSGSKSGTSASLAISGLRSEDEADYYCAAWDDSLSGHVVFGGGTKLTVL : reported Kd = ?
Output: 0.314

These entries and their values trace back to patent US20230374114A1.
